Would you mind telling me the reported SPOT peptide array binding signal intensity of each entry?
- System under test: CaLsb4
- Assay overview: SPOT peptide array binding signal intensity (averaged, normalized) (arbitrary units (background-subtracted, floor 0; scale differs between SH3 domains)); higher = stronger binding of the SH3 domain to the peptide
Write the number on its own, no unit after it.

Dear colleague, I am looking for the recorded SPOT peptide array binding signal intensity of the following binder: SKAKRPKFLLDLQIK
3.5

Field entry: VPPPMQPPPIESSNL
388

Field entry: EVTPKVPERPSRRKT
6660

Field entry: KDKSRPPRPPPKPLH
158

Field entry: GDHPKGPPPPPPPDE
5.5

Field entry: TPTSGPPLLPPRNTM
5320

Field entry: RLSRLLLSLPPESFT
37.5

Field entry: NPNRRAPRRPLSTQH
330
